meta.source: ChEMBL document CHEMBL6178021

Tested on: MDR1 (human)
Assay: Apparent permeability across basolateral to apical side in MDCK transfected with human MDR1 cells incubated for 1 hr by LC-MS analysis
Details: dog, MDCK-MDR1
The threshold is 30 nm/s. Values of Papp B→A at 1 h beneath it are tagged yes; values meeting or exceeding it are tagged no.

Example entries and their recorded answers appear below.
SMILES STR	TARGET	GROUP
CCC1=C(CC)/C(=C/NC2CCCCC2)N=C1c1ccc(Cl)[nH]1	MDR1 (human)	yes
CCC1=C(CC)/C(=C/NC23C[C@H]4C[C@@H](C2)C[C@@H](C3)C4)N=C1c1ccc(CC)[nH]1	MDR1 (human)	no
CCC1=C(CC)/C(=C/NC2CCCCC2)N=C1c1ccc[nH]1	MDR1 (human)	yes

Lookup: Is Papp B→A at 1 h strictly under 30 nm/s for the entry `COC1=C(OC)/C(=C/NC2CCCCCC2)N=C1c1ccc[nH]1` ?
Found: yes

Lookup: Is Papp B→A at 1 h strictly under 30 nm/s for the entry `CCc1ccc(C2=N/C(=C\NC3CCCCC3)C3=C2OCCO3)[nH]1` ?
Found: yes
